Entries and their measured koff follow.
Molecular target: T1, human IL6R (human, UniProt P08887 20-358, limits assumed)
T1 construct: Antigen of the Biacore experiments
T1 sequence (looked up): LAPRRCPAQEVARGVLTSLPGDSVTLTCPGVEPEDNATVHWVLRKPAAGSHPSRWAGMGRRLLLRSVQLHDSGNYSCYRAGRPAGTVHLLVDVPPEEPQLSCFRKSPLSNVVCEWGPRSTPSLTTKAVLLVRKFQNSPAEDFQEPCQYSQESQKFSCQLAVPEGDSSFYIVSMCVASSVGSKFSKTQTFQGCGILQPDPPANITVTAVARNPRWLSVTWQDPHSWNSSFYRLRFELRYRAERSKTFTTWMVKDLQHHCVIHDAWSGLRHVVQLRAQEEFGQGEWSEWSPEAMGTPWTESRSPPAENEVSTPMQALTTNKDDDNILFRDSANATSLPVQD
Test: SPR (Biacore), periplasmic extract
Write down the numeric answer in s⁻¹ and omit the unit.

binder: 32C9PMP1_E1 (VHH, name in Kabat numbering, Humanized 32C9 variant) VHH: EVQLVESGGGLVQAGGSLRLSCAASGFTFSDYDIGWFRQAPGKGREGVSGISSSDGNTYYADSVKGRFTISRDNAKNTLYLQMNSLKAEDTAVYYCAAEPPDSSWYLDGSPEFFKYWGQGTLVTVSS
endpoint_value: 0.000205
//
binder: 32C9PMP2_G4 (VHH, name in Kabat numbering, Humanized 32C9 variant) VHH: EVQLVESGGGLVQAGGSLRLSCAASGFTFDDYDIGWVRQAPGKGREGVSGISSSDGNTYYADSVKGRFTISRDNAKNTLYLQMNSLKAEDTAVYYCAAEPPDSSWYLDGSPEFFKYWGQGTQVTVSS
endpoint_value: 0.0007
//
binder: 32C9PMP2_F12 (VHH, name in Kabat numbering, Humanized 32C9 variant) VHH: EVQLVESGGGLVQAGGSLRLSCAASGFTFDDYDIGWVRQAPGKGREGVSGISSSDGNTYYADSVKGRFTISSDNAKNTLYLQMNSLRPEDTAVYYCAAEPPDSSWYLDGSPEFFKYWGQGTLVTVSS
endpoint_value: 0.000584

Turning now to a further binder:
Ask | Given 32C9PMP1_C5 (VHH, name in Kabat numbering, Humanized 32C9 variant) VHH: EVQLVESGGGLVQAGGSLRLSCAASGFTFDDYDIGWVRQAPGKELEGVSGISSSDGNTYYADSVKGRFTISSDNAKNTVYLQMNSLRPEDTAVYYCAAEPPDSSWYLDGSPEFFKYWGQGTLVTVSS , state its recorded koff.
Reply | 0.0052
